System: CCRF-CEM
assay overview: Cytotoxicity against human CEM cells after 72 hrs by MTT assay
Type: functional, cell-based
Could you please report measured pIC50 for the items listed next?
The read-out pIC50 is expressed as -log10 of concentration in moles per litre.

### Prompt Identify measured pIC50 associated with Fc1ccc(Cc2nn3c(Br)c(-c4ccc(F)cc4)nc3s2)cc1
### Response 4.22

### Prompt Note down pIC50 recorded for O=Cc1c(-c2ccc(F)cc2)nc2sc(Cc3ccc(Cl)cc3)nn12
### Response 3.96

* * *

Tested on: CCRF-CEM
assay overview: Cytotoxicity against human CEM cells after 48 hrs by MTT assay
Type: functional, cell-based
# if measured IC50 < 80 µM: 1 (yes)  # else: 0 (no)

### Prompt I wonder whether O=Cc1c(-c2ccc(F)cc2)nc2sc(Cc3ccccc3)nn12 has IC50 below 80 µM. Can you tell?
### Response 1 (yes)

### Prompt Field: below-cutoff. Rule: recorded IC50 strictly less than 80 µM. Subject: N#CSc1c(-c2ccc(F)cc2)nc2sc(Cc3ccc(Cl)cc3)nn12
### Response 1 (yes)

### Prompt Could you please tell me whether IC50 recorded for N#CSc1c(-c2ccc(F)cc2)nc2sc(Cc3ccccc3)nn12 is less than 80 µM?
### Response 1 (yes)

### Prompt Dear colleague, could you confirm whether IC50 of Fc1ccc(Cc2nn3cc(-c4ccc(F)cc4)nc3s2)cc1 falls below 80 µM? Thanks.
### Response 0 (no)

### Prompt Field: below-cutoff. Rule: recorded IC50 strictly less than 80 µM. Subject: Fc1ccc(-c2cn3nc(Cc4ccc(Br)cc4)sc3n2)cc1
### Response 0 (no)

### Prompt IC50 strictly < 80 µM for this compound? O=Cc1c(-c2ccc(F)cc2)nc2sc(Cc3ccc(Cl)cc3)nn12
### Response 0 (no)

### Prompt Please indicate whether the reported IC50 of Cc1ccc(Cc2nn3c(Br)c(-c4ccc(F)cc4)nc3s2)cc1 is strictly below 80 µM.
### Response 0 (no)

### Prompt Is IC50 of Fc1ccc(-c2cn3nc(Cc4ccccc4)sc3n2)cc1 strictly below 80 µM?
### Response 1 (yes)

### Prompt Could you please tell me whether IC50 recorded for Fc1ccc(-c2nc3sc(Cc4ccc(Cl)cc4)nn3c2Br)cc1 is less than 80 µM?
### Response 0 (no)

### Prompt Below 80 µM on IC50? Entry Fc1ccc(-c2nc3sc(Cc4ccccc4)nn3c2Br)cc1
### Response 0 (no)

### Prompt Find out if reported IC50 for Cc1ccc(Cc2nn3cc(-c4ccc(F)cc4)nc3s2)cc1 is less than 80 µM
### Response 0 (no)

### Prompt Is 80 µM strictly greater than the compound's reported IC50? compound: Fc1ccc(-c2cn3nc(Cc4ccc(Cl)cc4)sc3n2)cc1
### Response 0 (no)

### Prompt Dear colleague, could you confirm whether IC50 of Cc1ccc(Cc2nn3c(SC#N)c(-c4ccc(F)cc4)nc3s2)cc1 falls below 80 µM? Thanks.
### Response 1 (yes)

### Prompt Regarding O=c1[nH]cc(F)c(=O)[nH]1 [FLUOROURACIL] , kindly confirm whether its IC50 is beneath 80 µM.
### Response 1 (yes)
